target: Mu-type opioid receptor (Rattus norvegicus, UniProt P33535)
Sequence (P33535 whole entry): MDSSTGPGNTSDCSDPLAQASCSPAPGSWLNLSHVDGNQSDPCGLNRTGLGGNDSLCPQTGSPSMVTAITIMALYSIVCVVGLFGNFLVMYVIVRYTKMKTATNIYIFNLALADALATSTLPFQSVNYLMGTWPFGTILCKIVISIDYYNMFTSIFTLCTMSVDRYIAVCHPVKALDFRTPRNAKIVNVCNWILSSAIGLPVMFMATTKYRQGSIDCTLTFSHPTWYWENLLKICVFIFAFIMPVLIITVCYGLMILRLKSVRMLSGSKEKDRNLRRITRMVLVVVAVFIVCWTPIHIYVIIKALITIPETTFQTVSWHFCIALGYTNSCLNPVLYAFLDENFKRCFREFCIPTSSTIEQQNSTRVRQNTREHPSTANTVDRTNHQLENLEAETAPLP
Consider the cut-off 9 nM. If the recorded Ki is strictly smaller, the label is 1; if not, the label is -1.

Q. Dear colleague, could you confirm whether Ki of CC(C)Oc1ccc2c3c1O[C@H]1C(=O)CC[C@@]4(NC(=O)/C=C/c5ccc(Cl)cc5)[C@@H](C2)N(CC2CC2)CC[C@]314 falls below 9 nM? Thanks.
A. -1

Q. Dear colleague, could you confirm whether Ki of O=C(/C=C/c1ccc(Cl)cc1)N[C@@]12CCC(=O)[C@@H]3Oc4c(OCC5CC5)ccc5c4[C@@]31CCN(CC1CC1)[C@@H]2C5 falls below 9 nM? Thanks.
A. 1

Q. Dear colleague, could you confirm whether Ki of C#CCOc1ccc2c3c1O[C@H]1C(=O)CC[C@@]4(NC(=O)/C=C/c5ccc(Cl)cc5)[C@@H](C2)N(CC2CC2)CC[C@]314 falls below 9 nM? Thanks.
A. 1

Q. Dear colleague, could you confirm whether Ki of N#CCOc1ccc2c3c1O[C@H]1C(=O)CC[C@@]4(NC(=O)/C=C/c5ccc(Cl)cc5)[C@@H](C2)N(CC2CC2)CC[C@]314 falls below 9 nM? Thanks.
A. -1

Q. Dear colleague, could you confirm whether Ki of COC(=O)COc1ccc2c3c1O[C@H]1C(=O)CC[C@@]4(NC(=O)/C=C/c5ccc(Cl)cc5)[C@@H](C2)N(CC2CC2)CC[C@]314 falls below 9 nM? Thanks.
A. 1

Q. Dear colleague, could you confirm whether Ki of CCCOc1ccc2c3c1O[C@H]1C(=O)CC[C@@]4(NC(=O)/C=C/c5ccc(Cl)cc5)[C@@H](C2)N(CC2CC2)CC[C@]314 falls below 9 nM? Thanks.
A. -1

====

biological target: Delta-type opioid receptor (Rattus norvegicus, UniProt P33533); test: In vitro binding affinity against Opioid receptor delta 1 (DPDPE) in rat brain homogenates.
Sequence (P33533 whole entry): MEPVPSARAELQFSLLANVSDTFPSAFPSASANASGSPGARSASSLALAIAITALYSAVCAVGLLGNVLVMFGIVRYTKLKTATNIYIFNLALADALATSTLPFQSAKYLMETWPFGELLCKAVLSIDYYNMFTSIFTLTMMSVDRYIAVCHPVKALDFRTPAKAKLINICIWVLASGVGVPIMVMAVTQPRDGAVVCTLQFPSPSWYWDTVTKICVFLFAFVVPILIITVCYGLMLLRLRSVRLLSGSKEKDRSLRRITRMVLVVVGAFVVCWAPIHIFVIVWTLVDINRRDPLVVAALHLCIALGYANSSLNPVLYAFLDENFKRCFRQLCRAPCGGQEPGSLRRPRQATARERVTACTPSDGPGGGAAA
Can you tell me Ki for the items I'm about to list?
Answer shape: numeric part, then the unit.

Short answer on Delta-type opioid receptor (Rattus norvegicus, UniProt P33533) for N#CCOc1ccc2c3c1O[C@H]1C(=O)CC[C@@]4(NC(=O)/C=C/c5ccc(Cl)cc5)[C@@H](C2)N(CC2CC2)CC[C@]314 , Ki: 0.0895 µM

Short answer on Delta-type opioid receptor (Rattus norvegicus, UniProt P33533) for CCCOc1ccc2c3c1O[C@H]1C(=O)CC[C@@]4(NC(=O)/C=C/c5ccc(Cl)cc5)[C@@H](C2)N(CC2CC2)CC[C@]314 , Ki: 0.0826 µM

Short answer on Delta-type opioid receptor (Rattus norvegicus, UniProt P33533) for COC(=O)COc1ccc2c3c1O[C@H]1C(=O)CC[C@@]4(NC(=O)/C=C/c5ccc(Cl)cc5)[C@@H](C2)N(CC2CC2)CC[C@]314 , Ki: 0.0248 µM

Short answer on Delta-type opioid receptor (Rattus norvegicus, UniProt P33533) for CC(C)Oc1ccc2c3c1O[C@H]1C(=O)CC[C@@]4(NC(=O)/C=C/c5ccc(Cl)cc5)[C@@H](C2)N(CC2CC2)CC[C@]314 , Ki: 0.0964 µM

Short answer on Delta-type opioid receptor (Rattus norvegicus, UniProt P33533) for C=CCOc1ccc2c3c1O[C@H]1C(=O)CC[C@@]4(NC(=O)/C=C/c5ccc(Cl)cc5)[C@@H](C2)N(CC2CC2)CC[C@]314 , Ki: 0.0654 µM

Short answer on Delta-type opioid receptor (Rattus norvegicus, UniProt P33533) for C#CCOc1ccc2c3c1O[C@H]1C(=O)CC[C@@]4(NC(=O)/C=C/c5ccc(Cl)cc5)[C@@H](C2)N(CC2CC2)CC[C@]314 , Ki: 0.0213 µM

Short answer on Delta-type opioid receptor (Rattus norvegicus, UniProt P33533) for O=C(/C=C/c1ccc(Cl)cc1)N[C@@]12CCC(=O)[C@@H]3Oc4c(O)ccc5c4[C@@]31CCN(CC1CC1)[C@@H]2C5 , Ki: 0.0125 µM

Short answer on Delta-type opioid receptor (Rattus norvegicus, UniProt P33533) for O=C(/C=C/c1ccc(Cl)cc1)N[C@@]12CCC(=O)[C@@H]3Oc4c(OCC5CC5)ccc5c4[C@@]31CCN(CC1CC1)[C@@H]2C5 , Ki: 0.0565 µM
